Recorded Plant response rating, Kochia values for a group of molecules are listed next.
Tested on: kochia (Bassia scoparia)
experiment.notes: Test A postemergence, kochia
Assay type: in vivo
condition.summary: Postemergence, 125 g ai/ha; 0 to 100 scale (0 no effect, 100 complete control)
Lab note: jot down the number only; don't add units.

Take a look at these entries with their results.
- molecule: "COC(=O)N(c1cc(N2CCC3(CCCCC3)C2=O)c(C)cc1C)S(=O)(=O)C(F)(F)F"
  target.of.assay: "kochia (Bassia scoparia)"
  Plant response rating, Kochia: 0
- molecule: "Cc1cc(Cl)c(N(S(=O)(=O)C(F)(F)F)S(=O)(=O)C(F)(F)F)cc1C(=O)N1CCC(Cl)CC1"
  target.of.assay: "kochia (Bassia scoparia)"
  Plant response rating, Kochia: 10
- molecule: "Cc1cc(C)c(N(S(=O)(=O)C(F)(F)F)S(=O)(=O)C(F)(F)F)cc1C(=O)N1CCCOCC1"
  target.of.assay: "kochia (Bassia scoparia)"
  Plant response rating, Kochia: 20

Item under review: Cc1cc(C)c(N(S(=O)(=O)C(F)(F)F)S(=O)(=O)C(F)(F)F)cc1C1=NOC2(CCCCCC2)C1 . Reported Plant response rating, Kochia? 20

Next record, please: Cc1cc(C)c(N(COC(=O)c2ccccc2)S(=O)(=O)C(F)(F)F)cc1C1=NOC2(CCCC2)C1 10

Next record, please: Cc1cc(C)c(C(=O)N2CCC3(CCCC3)CC2)cc1NS(=O)(=O)C(F)(F)F 0

Next record, please: Cc1cc(C)c(C(=O)N2CCCC(F)C2)cc1NS(=O)(=O)C(F)(F)F (stereo not shown) 60
